CC50 at 48 h overview
Experiment: Cytotoxicity against HEK293T cells assessed as reduction in cell viability measured after 48 hrs by CCK8 assay
Format: cell-based, HEK-293T
Settings: human

INPUT: Entry Cn1cc(SCC(=O)Nc2ccc(Cl)c(Cl)c2)c2ccccc21 needs its CC50 at 48 h filled in; supply it.
OUTPUT: > 100 µM

INPUT: State, in one line, measured CC50 at 48 h of CCOc1ccccc1NC(=O)CSc1c[nH]c2cccc(OC)c12
OUTPUT: > 100 µM

INPUT: Give me measured CC50 at 48 h, please, for this molecule: O=C(CSc1c[nH]c2cc(Cl)ccc12)Nc1ccc(Cl)c(Cl)c1
OUTPUT: 67.8 µM
